Tested on: MDA-MB-231 breast
Experiment: NCI-60 one-dose screen, 48 h
Details: 10 µM unless noted
The panel holds about 83,000 compounds, 20% with a hit somewhere; the sample as a whole holds those more often. The source made the active and inactive calls. Rule for the calls: active = growth percent below 10; inactive = the rest.
Choose one outcome from this list and give only that: y = active, n = inactive

Query: Outcome logged for "CCCCC(=O)N/N=C/c1cc(I)cc(I)c1O" in this assay:
Reply: n

Query: Short answer needed: outcome of this test for "C[C@]1(CO)C[C@@H](O)C[C@]2(C)[C@@H]1CC[C@@]13C[C@@H]4[C@@H](C[C@H]12)[C@]4(C)C3" ?
Reply: n

Query: Which outcome was assigned to "c1ccc2cc(-c3n(Cc4ccc5ccccc5n4)c4ccccc4[n+]3Cc3ccc4ccccc4n3)ccc2c1" in this test?
Reply: y

Query: # lookup: test call for "COc1ncc(F)c(OC)n1"
Reply: n

Query: How was "CN1CCN(C)c2cncc(Br)c2C1=O" classified in this test?
Reply: n

Query: What is the recorded call for this compound in the test? "O=c1[nH]c(-c2ccncc2)nc2sc3c(c12)CCCCCC3"
Reply: n

Query: Please share the test call associated with "Cc1ccc(S(=O)(=O)c2ccc3[nH]c(=O)[nH]c(=O)c3c2)cc1" .
Reply: n

Query: For this compound, state the assay outcome: "COc1ccc(CSc2nc3cc(OC)c(OC)cc3c(=O)n2-c2ccc(Cl)cc2)cc1"
Reply: n

Query: What classification did "COC(=O)c1c2c(c(C)[n+]([O-])c1C)C(=O)C=C(NCc1cccc(Cl)c1)C2=O" end up with in this test?
Reply: y

Query: Please let me know the test result on file for "Nc1nc(N)c(N=Nc2c(Br)cc(S(N)(=O)=O)cc2Br)c(N)n1" .
Reply: n

Query: Field: outcome | Entry: "N#Cc1c(O)c2c(c(O)c1C#N)C(=O)c1ccccc1C2=O"
Reply: y

---

System: SF-295 CNS
Test: NCI-60 one-dose screen, 48 h
Settings: 10 µM unless noted
The panel holds about 83,000 compounds, 20% with a hit somewhere; the sample as a whole holds those more often. Calls of active or inactive are those of the source. The calls were made as follows: active = growth percent below 10; inactive = the rest.
Output constraint: value belongs to true = active, false = inactive

Query: Fill in: this test's call for "COc1ncnc2c1ncn2C/C(Br)=C(\Br)CCl" is ___
Reply: false

Query: Called result for "COc1cc(C(=O)/C=C/c2c(-c3cccs3)nc3sccn23)cc(OC)c1OC"
Reply: true

Query: Can you look up the reported call for "C[C@]1(CO)C[C@@H](O)C[C@]2(C)[C@@H]1CC[C@@]13C[C@@H]4[C@@H](C[C@H]12)[C@]4(C)C3" for me?
Reply: false

Query: For "Cc1ccc(C(=O)Nc2ccccc2N)cc1" , what call appears in the results of this test?
Reply: false

Query: Please state the recorded outcome for this compound: O=C1c2ccccc2-c2cn(Cc3ccccc3)c3cccc(c23)C1c1cccnc1 (stereo not given)
Reply: false

Query: I would be grateful if you could indicate the recorded call for "CCCCCCCCCCCCCCn1c2ccccc2c2c3c(c4c5cc(OC)ccc5oc4c21)C(=O)NC3=O" .
Reply: false

Query: What is the recorded call for this compound in the test? "Cc1cccc2c(=O)c3c(sc12)c(NCCNCCO)nc1ccccc13"
Reply: false

Query: Tell me the recorded outcome of this test for "Cc1ccccc1-n1nnc(C(=O)Nc2nc(-c3ccccc3)c(-c3ccccc3)s2)c1C" .
Reply: false

Query: What outcome does the record of this test show for "Cc1ccc(C)c2c1sc1nc3nc4sc5ccccc5n4c(=N)c3c(=O)n12" ?
Reply: false

Query: Given "Cn1c(=O)c(S(=O)(=O)c2ccccc2)cc2ccc3c(cnn3-c3ccc(Cl)cc3)c21" , state the outcome it received in this test.
Reply: false

---

System: MDA-MB-231 breast
Assay: NCI-60 one-dose screen, 48 h
Conditions: 10 µM unless noted
About 83,000 compounds went through this panel and 20% of them were active in at least one assay; those are over-represented in the sample as a whole. The source made the active and inactive calls. Rule for the calls: active = growth percent below 10; inactive = the rest.
Mark one answer only. Choices: Yes = active, No = inactive

Query: For "CCN1CCN(c2nc3ccccc3c3c(=O)c4cc(F)ccc4sc23)CC1" , what call appears in the results of this test?
Reply: No

Query: Per the records of this test, what outcome belongs to "CCN(c1ccc(C(=O)N2CCN(c3ccccc3)CC2)cc1)S(C)(=O)=O" ?
Reply: No

Query: Dear all, I need the recorded test outcome for "Clc1ccc(C2=Nc3cccc4cccc(c34)N2)cc1Cl" , thank you.
Reply: No

Query: # outcome recorded in this test, key = "CCCCC(CCCC)(S(=O)(=O)CC)S(=O)(=O)CC"
Reply: No

Query: Returns: the outcome recorded for "CN1CCc2c(c3ccccc3c3ccccc23)C1" in this assay.
Reply: No

Query: # outcome recorded in this test, key = "Cc1nc2cc(Nc3nc(N4CCOCC4)nc(N4CCN(C)CC4)n3)ccc2n1Cc1ccccc1"
Reply: No

Query: Can you look up the reported call for CC1=CN2C(=NC3=C(CCCC/C3=C\c3ccccc3)C2c2ccccc2)S1 (stereo unspecified) for me?
Reply: No

Query: Fill in: this test's call for "O=C1NC(=S)S/C1=C\c1cccc([N+](=O)[O-])c1" is ___
Reply: No

Query: Could you check what this test reported for O=C(N/N=C/c1ccc(OC(F)F)c(OC2CCCC2)c1)c1cnn2c1NC(c1ccccc1)C2 (stereo unspecified) ?
Reply: No

Query: Identify the outcome logged in this assay for the molecule shown: "CC(C)(C)CC(C)(C)N(CSc1ccc(Cl)cc1)CSc1ccc(Cl)cc1"
Reply: Yes

Query: How was "O=C(Nc1ccccc1O)c1ccc(NS(=O)(=O)c2cccc3cccnc23)cc1" classified in this test?
Reply: No

---

Test system: SNB-75 CNS
Assay: NCI-60 one-dose screen, 48 h (100 = growth as untreated, 0 = no growth, -100 = all killed)
Details: 10 µM unless noted
Experimental: Growth inhibition of the SNB-75 human tumor cell line is measured as a screen for anti-cancer activity. Cells are grown in 96 well plates and exposed to the test compound for 48 hours. Compounds are tested at a single concentration, which is 10^-5 M for most compounds. The reported endpoint is percent growth (GI% or GIPRCNT), where numbers from 0 - 100% represent growth inhibition, and numbers from -100% - 0 represent cell death. For example, a value of 40 represents 60% growth inhibition. […]
The panel holds about 83,000 compounds, 20% with a hit somewhere; the sample as a whole holds those more often.
Please use t whenever growth is not below 70%, and f whenever it is.

Query: Assess whether reported growth for CC[Si](CC)(CC)OC1[C@@H](O[Si](CC)(CC)CC)[C@@H](CNC(=O)NC)O[C@H]1n1cnc2c(NC(=O)Nc3ccccc3)ncnc21 (stereo not given in full) sits at 70% or higher.
Reply: t

Query: Does growth meet or surpass 70% for "O=c1oc2ccccc2cc1-c1csc(N/N=C/c2cc3ccccc3nc2Cl)n1" ?
Reply: t

Query: Please tell me: is the molecule "O=c1[nH]c(=S)[nH]c(=O)n1Cc1cccc2ccccc12" at or over 70% in terms of growth?
Reply: t

Query: Please tell me: is the molecule "O=C(O)c1ccccc1Oc1cc(-c2ccco2)nc(OCCBr)n1" at or over 70% in terms of growth?
Reply: t

Query: Has "N#Cc1ccc(C(F)(F)F)nc1N1CCC(C(=O)Nc2ccc(Cl)cc2)CC1" a recorded growth greater than or equal to 70%?
Reply: t

Query: Is it the case that "C=CC(=O)N1CC2(CC(n3nc(-c4ccc(Oc5ccccc5)cc4)c4c(N)ncnc43)C2)C1" has growth reaching or exceeding 70%?
Reply: f

Query: Reported growth at or above 70%? "O=C1/C(=C/c2ccc([N+](=O)[O-])cc2)Oc2ccc(O)cc21"
Reply: t

Query: Does the molecule "Nc1nc(N)c(C=Nc2ccc(Br)cc2)c(Nc2ccc(Br)cc2)n1" have recorded growth that is 70% or more?
Reply: t

Query: Is growth at least 70%? Consider C=C(C)COC(=O)c1ccccc1C(=O)OCC1(C)CO1 (stereo not given)
Reply: t

Query: // inclusive: growth at least 70%? input: C=C[C@H]1C[C@@H]2C[C@@H]3[C@H]4C/C=C\C(=O)NCCCC5NC(=O)C(=C(O)/C=C/[C@@H]4CC(=O)[C@H]3[C@@H]2[C@H]1C)C5=O (stereo not given in full)
Reply: f

Query: growth >= 70% for COc1cc(C2=NN(c3ccc(S(N)(=O)=O)cc3)C(c3ccc(Cl)cc3)C2)cc(OC)c1OC (stereo not given) ?
Reply: f

Query: Say whether "Oc1ccccc1/C=N/Nc1nc2ccccc2s1" shows growth of 70% or more.
Reply: f

Query: Determine whether measured growth meets or exceeds 70% for "FC(F)(F)Oc1ccc2c(c1)C[C@H]1C[C@@H](c3ccoc3)N2O1"
Reply: t

Query: Given the entry "CCN1CCN(c2nc3ccccc3c3c(=O)c4cc(F)ccc4sc23)CC1" , answer whether its growth meets or surpasses 70%.
Reply: f

Query: Does the reported growth for "CCOC(=O)c1c(Cl)c2c(n1Cc1cc(OC)cc(OC)c1)-c1oncc1CCC2" fall at or above the 70% mark?
Reply: f

Query: I'd appreciate it if you could say whether "COc1ncnc2c1ncn2C/C(Br)=C(\Br)CCl" has growth at least equal to 70%.
Reply: f

Query: Assess whether reported growth for CCOC(=O)C(CC(c1ccccc1)N1CCCCC1)[N+](=O)[O-] (stereo not given) sits at 70% or higher.
Reply: t

Query: Reported growth reaches at least 70% for "COc1cc(CNCCCN2C(=O)c3ccc4c5c(ccc(c35)C2=O)C(=O)N(CCCNCc2cc(OC)c(OC)c(OC)c2)C4=O)cc(OC)c1OC" ?
Reply: f

Query: // inclusive: growth at least 70%? input: O=C1CN2CCC1C/C2=C\c1ccnc2c(Cl)cccc12 (stereo not given)
Reply: t

Query: Given the entry CCCCC1COc2cccc3c(SCC(=O)N(C)c4cccc5ccccc45)cc[n+]1c23 (stereo not given) , answer whether its growth meets or surpasses 70%.
Reply: t

Query: API: above_or_equal(metric=growth, cutoff=70%) for item "Cc1cc(O)cc2c1[C@H]1CC[C@]3(C)[C@@H](O)CC[C@H]3[C@@H]1C=C2"
Reply: t

Query: Check if growth >= 70% (inclusive). Item: "NC(=O)c1nc2c([nH]c1=O)CCCC2"
Reply: t

Query: Is growth at least 70%? Consider "CCCCCCCC/C=C\CCCCCCCCOc1cccc(CC(=O)NCC[N+]2(C)CCCC2)c1"
Reply: f

Query: Test whether the molecule Oc1ccc2ccccc2c1C1NN=C(c2ccccc2)S1 (stereo not given) records growth of 70% or higher.
Reply: f

Query: Would you say "Cn1c2ccc(Cl)cc2c2nn(C(=O)c3ccccc3)c(=O)nc21" shows growth at minimum 70%?
Reply: t

Query: Is it the case that "C(=C\c1ccccc1)/CN1CCN(C(c2ccccc2)c2ccccc2)CC1" has growth reaching or exceeding 70%?
Reply: t

Query: Exam item: decide whether the reported growth for "CN1CCN(c2ccc3nc(-c4ccc5nc(-c6ccc(C(F)(F)F)cc6)[nH]c5c4)[nH]c3c2)CC1" is at least 70%.
Reply: f

Query: Please indicate if the recorded growth for "Cc1nc2cc(Nc3nc(Nc4ccc(F)cc4)nc(-c4ccc(Cl)cc4)n3)ccc2n1Cc1ccccc1" meets or exceeds 70%.
Reply: f

Query: hey, is growth for this one >= 70%? "O=C(Nc1ccc(Cl)c(Cl)c1)OCn1ncc2ccc([N+](=O)[O-])cc21"
Reply: f

Query: Does the reported growth for "FCOC(C(F)(F)F)C(F)(F)F" fall at or above the 70% mark?
Reply: t

Query: Is the recorded value of growth equal to or greater than 70% for this molecule? CCOC(=O)C1=C(C)N2C(=NC3=C(CCCC/C3=C\c3cc(OC)c(OC)c(OC)c3)C2c2cc(OC)c(OC)c(OC)c2)S1 (stereo not given)
Reply: t

Query: Identify whether the reported growth of the following molecule is 70% or greater: "O=c1nc(NO)[nH]c(=O)n1Cc1ccccc1"
Reply: t

Query: Exam item: decide whether the reported growth for Cc1c(C)n(CC(O)CNC2CCCCC2C)c2ccccc12 (stereo not given) is at least 70%.
Reply: f

Query: # bool: growth of "O=C1c2ccccc2-c2nnc(-c3ccc(Br)cc3)cc21" >= 70%
Reply: f

Query: Dear colleague, could you confirm whether "COc1cc(-c2nc(SC(C)C)nc(Nc3ccccc3C)c2C#N)cc(OC)c1OC" has growth at or above 70%?
Reply: t

Query: Test whether the molecule "Cc1ccc(S(=O)(=O)N2C/C(=C\c3cc(F)cc(F)c3)C(=O)/C(=C/c3cc(F)cc(F)c3)C2)cc1" records growth of 70% or higher.
Reply: f

Query: Given COc1ccc(/C=N/NC(=O)c2cnn3c2NC(c2ccccc2)C3)cc1OC1CCCC1 (stereo not given) , state whether its growth is at least 70%.
Reply: t
